# Test system: Musca domestica
# ASSAY OVERVIEW: Musca domestica test
# Format: in vivo
# STATED CONDITIONS: application rate of 100 ppm; adults, sugar sponge; after 2 days
# Procedure: Solvent: dimethyl sulfoxide To produce a suitable preparation of active compound, 10 mg of active compound are dissolved in 0.5 ml solvent, and the concentrate is diluted with water to the desired concentration. Prior to the assay, a piece or kitchen sponge is soaked with a mixture of sugar and compound solution and placed into a container. 10 adults (Musca domestica) are placed into the container and closed with a perforated lid. After 2 days mortality in % is determined. […]
REPORTED PROPERTY: activity (mortality in %)
Give bare numbers, in %.

Each molecule below has a reported value. Please supply its activity (mortality in %).
1. CCOC(c1cc(I)c(NC(=O)c2cccc(NC(=O)c3ccccc3F)c2)c(I)c1)(C(F)(F)F)C(F)(F)F
2. CCOC(=O)Nc1cccc(C(=O)Nc2c(I)cc(C(OCC)(C(F)(F)F)C(F)(F)F)cc2I)c1
3. Cc1cc(C(n2cc(C(F)(F)F)cn2)C(F)(F)C(F)(F)F)cc(C)c1NC(=O)c1cccc(NC(=O)c2cccnc2Cl)c1 (stereo not shown)

## Output
90
90
80

## Input Check the records and state activity (mortality in %) for CCOC(c1cc(I)c(NC(=O)c2cccc(NC(=O)c3ccccc3)c2)c(I)c1)(C(F)(F)F)C(F)(F)F
## Output 80
